# assayTarget: human ether-à-go-go-related gene (hERG) potassium channel (human, UniProt Q12809);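 also: peak tail current of the secondary pulse compared with the same well before compound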
# Sequence (Q12809 whole entry, looked up): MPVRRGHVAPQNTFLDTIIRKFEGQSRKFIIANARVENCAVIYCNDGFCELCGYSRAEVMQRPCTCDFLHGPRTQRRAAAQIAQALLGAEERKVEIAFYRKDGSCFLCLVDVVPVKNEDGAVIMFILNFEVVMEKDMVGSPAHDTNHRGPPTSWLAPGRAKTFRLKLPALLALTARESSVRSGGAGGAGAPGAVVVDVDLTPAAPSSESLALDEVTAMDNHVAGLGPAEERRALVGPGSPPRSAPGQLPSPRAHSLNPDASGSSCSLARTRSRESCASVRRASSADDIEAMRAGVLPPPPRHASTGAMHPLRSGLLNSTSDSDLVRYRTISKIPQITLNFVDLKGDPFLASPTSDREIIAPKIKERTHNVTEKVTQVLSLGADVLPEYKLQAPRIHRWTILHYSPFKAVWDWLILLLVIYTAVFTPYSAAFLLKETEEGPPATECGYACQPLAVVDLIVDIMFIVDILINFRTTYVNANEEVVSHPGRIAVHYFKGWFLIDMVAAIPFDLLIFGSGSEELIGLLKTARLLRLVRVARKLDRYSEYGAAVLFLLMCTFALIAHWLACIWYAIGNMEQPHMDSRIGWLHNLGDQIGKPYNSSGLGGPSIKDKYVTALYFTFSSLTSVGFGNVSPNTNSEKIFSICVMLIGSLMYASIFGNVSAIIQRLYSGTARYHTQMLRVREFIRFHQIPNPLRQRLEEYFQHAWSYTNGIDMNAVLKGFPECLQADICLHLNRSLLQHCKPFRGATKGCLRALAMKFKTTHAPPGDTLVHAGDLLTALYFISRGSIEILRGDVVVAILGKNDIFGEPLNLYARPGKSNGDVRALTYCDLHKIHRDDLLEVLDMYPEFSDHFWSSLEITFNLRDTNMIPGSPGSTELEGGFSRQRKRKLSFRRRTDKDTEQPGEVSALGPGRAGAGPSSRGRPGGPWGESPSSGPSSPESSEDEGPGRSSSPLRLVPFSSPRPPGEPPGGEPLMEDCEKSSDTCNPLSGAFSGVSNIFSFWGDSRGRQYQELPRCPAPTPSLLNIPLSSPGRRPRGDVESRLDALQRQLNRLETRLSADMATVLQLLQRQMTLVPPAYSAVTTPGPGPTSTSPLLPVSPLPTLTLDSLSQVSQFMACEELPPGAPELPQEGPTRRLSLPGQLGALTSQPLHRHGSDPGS
# experimentDescription: primary screen, population patch clamp on CHO cells stably expressing hERG; higher = less effect of the substance
The campaign covered roughly 310,000 compounds. About 14,000 (4.5%) showed an effect of 50% or more. Effects have a minus sign here. Shown is part of a subset that was picked to be rich in strong results.
observationType: hERG current change (%, negative = inhibition) at 10uM (%)
Give a bare numeral; the unit % is implied.

The compound CCCC1=NN(c2ccc([N+](=O)[O-])cc2)C(=O)/C1=C\N(C)C showed hERG current change (%, negative = inhibition) at 10uM equal to -7.95

Entry CCOc1ccc2nc(N3CCC(C(=O)N4CCN(c5ccccn5)CC4)CC3)sc2c1 ; hERG current change (%, negative = inhibition) at 10uM = -45.7

Reported hERG current change (%, negative = inhibition) at 10uM ( CCn1c(=O)c(C(=O)NCc2ccccc2)c(O)c2ccccc21 ) = 19.1

response.value for CCc1cccc(C)c1NC(=O)C1C2CCC(O2)C1C(=O)O (centres unmarked) (field: hERG current change (%, negative = inhibition) at 10uM) = 18.8

Reported hERG current change (%, negative = inhibition) at 10uM for Fc1ccccc1NC(=S)NC1CCCC1 was 14

So for CCn1c(C(=O)NCc2cccnc2)cc2sc(Cl)cc21 , the logged hERG current change (%, negative = inhibition) at 10uM turned out to be -57.2

In plain terms, Cc1ccc(NC(=O)COC(=O)c2ccc(F)cc2Cl)c(Br)c1 has a documented hERG current change (%, negative = inhibition) at 10uM of 14.1

Documented hERG current change (%, negative = inhibition) at 10uM of Cc1ccc(C(=O)/C=C/c2ccc(-c3ccccc3[N+](=O)[O-])o2)cc1 : 12.5

response.value for Cc1c(Cl)cccc1NC(=S)NCc1ccco1 (field: hERG current change (%, negative = inhibition) at 10uM) = 4.12

// hERG current change (%, negative = inhibition) at 10uM lookup, compound = COC(=O)CCn1nnc(-c2ccc(C)cc2)n1 , result: 12.3

Lab note: Cc1cccc(N2CCN(C(=O)C3COc4ccccc4O3)CC2)c1C (centres unmarked) gave hERG current change (%, negative = inhibition) at 10uM of -17.4

Looking up O=C(c1cc(-c2ccc(O)cc2)on1)N1CCN(c2ccc(F)cc2)CC1 , I see its hERG current change (%, negative = inhibition) at 10uM listed as -23.6

hERG current change (%, negative = inhibition) at 10uM in this record for CN(C(=O)COC(=O)c1cc(S(=O)(=O)N2CCCCC2)ccc1N1CCOCC1)C1CCS(=O)(=O)C1 (centres unmarked) : -6.63

get_value(item= COC(=O)Nc1ccc(S(=O)(=O)NNC(=O)c2c(O)c3ccccc3n(C)c2=O)cc1 , readout=hERG current change (%, negative = inhibition) at 10uM) returns 25.9

Noted for CCn1cc(SCC(=O)Nc2cc(C)on2)c2ccccc21 : its hERG current change (%, negative = inhibition) at 10uM reads 7.98

For O=c1c2ccccc2cnn1Cc1n[nH]c(=S)n1-c1ccc(Cl)cc1 the compound record lists hERG current change (%, negative = inhibition) at 10uM as 14.5

Given item CCS(=O)(=O)N1Cc2ccccc2CC1C(=O)Nc1cccc(C)c1 (centres unmarked) , the value recorded as its hERG current change (%, negative = inhibition) at 10uM is -4.95

In plain terms, Cn1cc(CN2CCC(N3CCNC(=O)CC3)CC2)c(-c2ccccc2F)n1 has a documented hERG current change (%, negative = inhibition) at 10uM of 8.43

# compound NC(=O)c1ccc(NC(=O)CN2CCN(Cc3ccccc3)CC2)cc1 ; its hERG current change (%, negative = inhibition) at 10uM = -0.874

hERG current change (%, negative = inhibition) at 10uM reported for this compound Cc1oc2ncnc(N)c2c1C : 8.52

Item: CCCCn1c(=O)c(C(=O)NCc2ccncc2)c(O)c2ccccc21 | hERG current change (%, negative = inhibition) at 10uM: -44

Measured hERG current change (%, negative = inhibition) at 10uM, CC(C)(O)C#Cc1ccc(C(=O)Nc2ccc3c(c2)OCO3)s1 : 22.7

Summary for this compound, N/C(=N\OC(=O)COc1ccccc1)c1ccc(Cl)cc1 : hERG current change (%, negative = inhibition) at 10uM is 2.9

Entry under test: COc1ccc(Nc2nc(C(=O)NCc3ccco3)cs2)cc1 . Its hERG current change (%, negative = inhibition) at 10uM was -14.4

For record COC(=O)c1ccc(/C=C/C(=O)OCC(=O)Nc2ncc(Cl)cc2Cl)cc1 the listed hERG current change (%, negative = inhibition) at 10uM is -19.9

The reported value for O=C1CCCN1c1cc(Cl)ccc1Cl in terms of hERG current change (%, negative = inhibition) at 10uM is 2.17

// sample CCCCCn1c(=O)c(C(=O)NCc2ccncc2)c(O)c2ccccc21 , its hERG current change (%, negative = inhibition) at 10uM was -53.7

hERG current change (%, negative = inhibition) at 10uM measured on CCN(c1cccc(C)c1)S(=O)(=O)c1ccc2c(c1)NC(=O)CCS2 = 8.09

Notebook: CCc1ccc(C(=O)NNc2ccc(S(N)(=O)=O)cc2)cc1 , hERG current change (%, negative = inhibition) at 10uM read as 9.05

Consider CCNC(=O)CSc1nc(-c2ccc(F)cc2)cs1 . Its measured hERG current change (%, negative = inhibition) at 10uM is 21.2

Given item CCCCCn1c(=O)c(C(=O)NCc2ccccc2)c(O)c2ccccc21 , the value recorded as its hERG current change (%, negative = inhibition) at 10uM is 15.2

The compound O=C(CN(c1cccc(C(F)(F)F)c1)S(=O)(=O)c1ccccc1)N1CCOCC1 showed hERG current change (%, negative = inhibition) at 10uM equal to -30.5

Lab note: Cc1ccc(C(=O)N/C(=C\c2ccc(-c3ccccc3[N+](=O)[O-])o2)C(=O)NCCCN(C)C)cc1 gave hERG current change (%, negative = inhibition) at 10uM of -74.5

Reported hERG current change (%, negative = inhibition) at 10uM for Cc1cccc(-c2nc(CN3CCCC(C(=O)NC4CCCCCC4)C3)c(C)o2)c1 (centres unmarked) was -69.8

The compound CCCn1c(=O)c(C(=O)NNS(=O)(=O)c2ccc(NC(=O)OC)cc2)c(O)c2ccccc21 showed hERG current change (%, negative = inhibition) at 10uM equal to 9.85

The compound CCOc1ccc2nc(N3CCC(C(=O)N4CCC5(CC4)OCCO5)CC3)sc2c1 showed hERG current change (%, negative = inhibition) at 10uM equal to -8.46

The compound listed as COc1ccc(C(C)=O)cc1COC(=O)CCNS(=O)(=O)c1ccc(C)c(C)c1 has a reported hERG current change (%, negative = inhibition) at 10uM of -38.3

Measured hERG current change (%, negative = inhibition) at 10uM, Cc1ccc(C(=O)Nc2ccc(Br)c(C(F)(F)F)c2)cc1 : 4.38

# hERG current change (%, negative = inhibition) at 10uM (compound: O=C(NNC(=O)c1cccc(O)c1)Nc1ccc([N+](=O)[O-])cc1 ) is 16.3

The compound Cc1cc(C)nc(NS(=O)(=O)c2ccc(N3Cc4ccccc4C3=O)cc2)n1 showed hERG current change (%, negative = inhibition) at 10uM equal to 12.2

The recorded hERG current change (%, negative = inhibition) at 10uM for entry Cc1ccc(NC(=O)C2CCC(=O)N2C(=O)OCc2ccccc2)cc1 (centres unmarked) equals -23.5

---

# assayTarget: human ether-à-go-go-related gene (hERG) potassium channel (human, UniProt Q12809);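 also: peak tail current of the secondary pulse compared with the same well before compound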
# experimentDescription: primary screen, population patch clamp on CHO cells stably expressing hERG; higher = less effect of the substance
# Protocol: Briefly, Chinese hamster ovary (CHO) cells stably expressing the hERG channel were dislodged from tissue culture flasks and dispensed into PPC plates. […] During the recording, background leak currents were estimated by a 100 ms step to -80 mV from an initial holding potential of -70 mV and subtracted from the subsequent current measurement. The campaign was conducted in two phases using slight differences in recording protocol. […]
Among all 310,000 compounds or so, about 14,000 (4.5%) showed an effect of 50% or more. The effect is printed as a negative number. Only a selection was taken, and strong results are over-represented in it overall.
Please go through the items and note down their hERG current change (%, negative = inhibition) at 10uM.
The response must be a number in % with no trailing unit.

# hERG current change (%, negative = inhibition) at 10uM measured on human ether-à-go-go-related gene (hERG) potassium channel (human, UniProt Q12809) for item CCOc1ccc(OCCOCCN2CCCC2)cc1.O=C(O)C(=O)O = 0.376

# CCCc1ccc(OCC(=O)NNC(=O)c2cccnc2)cc1 with human ether-à-go-go-related gene (hERG) potassium channel (human, UniProt Q12809): hERG current change (%, negative = inhibition) at 10uM is -10.9

Field hERG current change (%, negative = inhibition) at 10uM (human ether-à-go-go-related gene (hERG) potassium channel (human, UniProt Q12809)), entry NCCNc1ccc2nnnn2n1 : 38.7

Tested system human ether-à-go-go-related gene (hERG) potassium channel (human, UniProt Q12809); hERG current change (%, negative = inhibition) at 10uM recorded for CCOc1ccc(C(=O)CCN2CCCCC2)cc1 was -19.7

Measured on human ether-à-go-go-related gene (hERG) potassium channel (human, UniProt Q12809), CC(=O)Cn1ncc(N2CCOCC2)c(Cl)c1=O has a documented hERG current change (%, negative = inhibition) at 10uM of 4.26

Item: NC(=O)CSc1nnnn1-c1ccccc1Cl | System: human ether-à-go-go-related gene (hERG) potassium channel (human, UniProt Q12809) | hERG current change (%, negative = inhibition) at 10uM: 6.07

Lab note: molecule CCOc1ccc(OCCN2CCCCC2)cc1.O=C(O)C(=O)O tested on human ether-à-go-go-related gene (hERG) potassium channel (human, UniProt Q12809); recorded hERG current change (%, negative = inhibition) at 10uM was -21.7

human ether-à-go-go-related gene (hERG) potassium channel (human, UniProt Q12809) assay, molecule O=C(O)C(=O)O.c1ccc(COc2ccc(OCCN3CCCCC3)cc2)cc1 , recorded hERG current change (%, negative = inhibition) at 10uM = -70.2

Field hERG current change (%, negative = inhibition) at 10uM (system: human ether-à-go-go-related gene (hERG) potassium channel (human, UniProt Q12809)) for entry CCCCn1c(SCC(=O)NNC(=O)c2ccco2)nnc1-c1ccco1 = 4

Tested on human ether-à-go-go-related gene (hERG) potassium channel (human, UniProt Q12809), the item c1ccc2cc(OCCN3CCCC3)ccc2c1 showed hERG current change (%, negative = inhibition) at 10uM equal to -33.1

Summary: COc1ccc2nc(N3CCN(C(=O)C4COc5ccccc5O4)CC3)sc2c1 (stereo not shown) , human ether-à-go-go-related gene (hERG) potassium channel (human, UniProt Q12809), hERG current change (%, negative = inhibition) at 10uM = -61.2

Known value: human ether-à-go-go-related gene (hERG) potassium channel (human, UniProt Q12809) hERG current change (%, negative = inhibition) at 10uM of the molecule O=C(C1COc2ccccc2O1)N1CCN(c2nc3ccc([N+](=O)[O-])cc3s2)CC1 (stereo not shown) equals -29.8

Item: S=c1[nH]nc(Cc2sc(-c3ccccc3)nc2-c2ccccc2)o1 | System: human ether-à-go-go-related gene (hERG) potassium channel (human, UniProt Q12809) | hERG current change (%, negative = inhibition) at 10uM: 21.6

Fill in: human ether-à-go-go-related gene (hERG) potassium channel (human, UniProt Q12809) hERG current change (%, negative = inhibition) at 10uM for CC(=O)c1ccc(O)c(CSC2=NCCS2)c1 = 19.8

Simply: CO/N=C(\Cn1ncc(N2CCOCC2)c(Br)c1=O)c1ccc(Cl)cc1 , human ether-à-go-go-related gene (hERG) potassium channel (human, UniProt Q12809), hERG current change (%, negative = inhibition) at 10uM = -19.7

Entry O=C(CSc1nc2ccccc2s1)N1CCN(C(=O)c2ccco2)CC1 , human ether-à-go-go-related gene (hERG) potassium channel (human, UniProt Q12809) data, hERG current change (%, negative = inhibition) at 10uM value: -41.3

So the reported hERG current change (%, negative = inhibition) at 10uM for O=C(Cn1ncc(N2CCCC2)c(Cl)c1=O)c1ccc(Cl)cc1 , on human ether-à-go-go-related gene (hERG) potassium channel (human, UniProt Q12809), turned out to be -21.2

Param item: CCN(CC)CCOc1ccc2c(c1)C(=NO)c1cc(OCCN(CC)CC)ccc1-2.Cl ; param system: human ether-à-go-go-related gene (hERG) potassium channel (human, UniProt Q12809); output hERG current change (%, negative = inhibition) at 10uM: -16.4

Short answer on human ether-à-go-go-related gene (hERG) potassium channel (human, UniProt Q12809) for CC(C)(C)C(=O)Cn1ncc(N2CCOCC2)c(Cl)c1=O , hERG current change (%, negative = inhibition) at 10uM: -71.9

CO/N=C(\Cn1ncc(N2CCCC2)c(Br)c1=O)c1ccc(Cl)cc1 tested on human ether-à-go-go-related gene (hERG) potassium channel (human, UniProt Q12809) gave hERG current change (%, negative = inhibition) at 10uM: -57.5

Form: item CN(/N=C/c1ccc(C(C)(C)C)cc1)C1=NCCN1 ; test system human ether-à-go-go-related gene (hERG) potassium channel (human, UniProt Q12809); hERG current change (%, negative = inhibition) at 10uM: -71.6

Assay human ether-à-go-go-related gene (hERG) potassium channel (human, UniProt Q12809), sample O=C(Cn1ncc(N2CCCC2)c(Br)c1=O)c1ccc(Cl)cc1 , hERG current change (%, negative = inhibition) at 10uM read: -23.1
